# Tested on: NCI-H226
# assay-comment: NCI tumour cell line growth inhibition, 48 h
Active and inactive are the calls of the source. No stated cut-off is given here; in the data, active = GI50 up to about 1.1 µM and inactive = higher.
Response enum: true (active), false (inactive)

Look over these answered cases.
Call for entry CN(C)CCCNC(=O)N/N=C/c1ccc([N+](=O)[O-])cc1 :
false

Call for entry N#Cc1ccc2cc3c(cc2c1)OCO3 :
false

More entries:
Call for entry COc1ccc(/C=C/C(=O)c2ccc(Br)cc2)cc1 :
false

Call for entry O=C(/C=C/c1ccc([N+](=O)[O-])cc1)c1nc2ccccc2[nH]1 :
true

Call for entry CCN(CC)C(=S)SC(C(=O)Nc1nnc(-c2ccccc2)o1)c1ccccc1 (stereo unspecified) :
false

Call for entry NC(=O)c1cccc([N+](=O)[O-])c1 :
false
